Entries and their xmid (log10) values follow.
Target: CoV-2 (SARS-CoV-2)
Readout: xmid (log10)

{"columns": ["Binder", "Measured Number"],
 "data": [
  ["vhh_tstrep_sars2_pjl1_L_22 (VHH) VHH: QVQLQESGGGLVQAGGSLRLSCAASGRTFSEYAMGWFRQAPGKEREFVATISASGGSTYYTDSVKGRFTISRDNAKNTVYLQMNSLKPDDTAVYYCAAAGLGTVVSEWDYDYDYWGQGTQVTVSS", 0.892],
  ["vhh_tstrep_sars2_pjl1_L_24 (VHH) VHH: QVQLQESGGGLVQAGGSLRLSCAASGRTFSEYAMGWFRQAPGKEREFVATISWSGGSTAYTDSVKGRFTISRDNAKNTVYLQMNSLKPDDTAVYYCAAAGLGTVVSEWDYDYDYWGQGTQVTVSS", 0.908],
  ["vhh_tstrep_sars2_pjl1_L_38 (VHH) VHH: QVQLQESGGGLVQAGGSLRLSCAASGRTFSEYAMGWFRQAPGKEREFVATISWSGGSTYYTDSVKGRFTISRDNAKNTVYLQMNSLKPDDTAVYYCAAAGLGTVVSEWAYDYDYWGQGTQVTVSS", 0.854],
  ["vhh_tstrep_sars2_pjl1_L_27 (VHH) VHH: QVQLQESGGGLVQAGGSLRLSCAASGRTFSEYAMGWFRQAPGKEREFVATISWSGGSTYYTDSVKGRFTISRDNAKNTVYLQMNSLKPDDTAVYYCAAAGLATVVSEWDYDYDYWGQGTQVTVSS", 0.577],
  ["vhh_tstrep_sars2_pjl1_L_32 (VHH) VHH: QVQLQESGGGLVQAGGSLRLSCAASGRTFSEYAMGWFRQAPGKEREFVATISWSGGSTYYTDSVKGRFTISRDNAKNTVYLQMNSLKPDDTAVYYCAAAGLGTVVSAWDYDYDYWGQGTQVTVSS", 0.532]
]}
